These measurements were taken from patent US20210246502A1.

- System: N. gonorrhoeae
- Type: cell-based, Neisseria gonorrhoeae
- assaySetup: out of all 1102 gonococcal isolates; ancestral reconstruction only for cefixime
measuredMetric: number of isolates associated with resistance

Check out these entries, answers already filled in.
| smi | experimentalResult |
| --- | --- |
| CC[C@H]1OC(=O)[C@H](C)[C@@H](O[C@H]2C[C@@](C)(OC)[C@@H](O)[C@H](C)O2)[C@H](C)[C@@H](O[C@@H]2O[C@H](C)C[C@H](N(C)C)[C@H]2O)[C@](C)(O)C[C@@H](C)CN(C)[C@H](C)[C@@H](O)[C@]1(C)O | 232 |
| O=C(O)c1cn(C2CC2)c2cc(N3CCNCC3)c(F)cc2c1=O | 594 |
| CO/N=C(\C(=O)N[C@@H]1C(=O)N2C(C(=O)O)=C(CSc3nc(=O)c(=O)[nH]n3C)CS[C@H]12)c1csc(N)n1 | 69 |

Now examine the next entry.
Query: What does the data say about its number of isolates associated with resistance? Entry: C=CC1=C(C(=O)O)N2C(=O)[C@@H](NC(=O)/C(=N\OCC(=O)O)c3csc(N)n3)[C@H]2SC1
Reply: 266
